- Target entity: N-formyl peptide receptor 2 (Homo sapiens) (UniProt P25090)
- Sequence (P25090 whole entry, looked up): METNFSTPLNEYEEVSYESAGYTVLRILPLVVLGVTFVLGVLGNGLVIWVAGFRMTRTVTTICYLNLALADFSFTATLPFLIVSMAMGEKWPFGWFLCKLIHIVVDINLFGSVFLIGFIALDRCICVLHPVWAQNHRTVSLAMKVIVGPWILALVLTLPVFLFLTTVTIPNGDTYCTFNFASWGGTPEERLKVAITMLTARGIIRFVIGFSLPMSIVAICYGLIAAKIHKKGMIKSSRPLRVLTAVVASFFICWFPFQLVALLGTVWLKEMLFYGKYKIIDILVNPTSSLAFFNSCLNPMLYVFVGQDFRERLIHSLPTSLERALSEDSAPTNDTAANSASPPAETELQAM
- Protocol details: FPRL1 antagonists blocking calcium signal, SAR follow-up, cell-based, calcium response, secondary assay (AID 1061)
- Test context: FPRL1-expressing cells, antagonist mode, at 100 µM, stronger effect = higher value
The source made the active and inactive calls. How the calls were made is not given here.
Measurement kind: inhibition

[
  {
    "Smiles code": "COc1ccc(CC(=O)Nc2cc(-c3cn4cccnc4n3)ccc2OC)cc1",
    "inhibition": "75%"
  },
  {
    "Smiles code": "COc1ccc(-c2cn3cccnc3n2)cc1NC(=O)C(C)C",
    "inhibition": "93%"
  },
  {
    "Smiles code": "COc1ccc(-c2cc(C(F)(F)F)nc(N3CCN(Cc4ccccc4)CC3)n2)cc1OC",
    "inhibition": "48% (inactive)"
  },
  {
    "Smiles code": "COc1ccc(-c2cn3cccnc3n2)cc1NC(=O)C1CC1",
    "inhibition": "79%"
  }
]

Look up inhibition for this compound: `CCC(=O)Nc1cc(-c2cn3cccnc3n2)ccc1OC`
36% (inactive)
